Source: the supplement of paper PMC10567573

B1: CPOX (parent)
chain: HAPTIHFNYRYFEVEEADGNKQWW

Variants of: B1
Assay: protein stability index of a GFP-peptide fusion (GPS, HEK-293T) (PSI 1-6); higher = more stable;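 also: lentivirally expressed fusions sorted by FACS into six bins by GFP to DsRed ratio, PSI derived from sequencing read proportions per bin multiplied by bin number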
Conditions: c terminus: a fixed tail appended
outcome_measure: protein stability index
Quick one: just the number, no unit, thanks!

## Task Give recorded protein stability index. E13V
## Result 2.52

New cases:
## Task Give recorded protein stability index. F7R
## Result 2.83

## Task Give recorded protein stability index. F7I
## Result 3.05

## Task Give recorded protein stability index. E16R
## Result 1.91

## Task Give recorded protein stability index. T4M
## Result 1.97

## Task Give recorded protein stability index. R10P
## Result 2.38

## Task Give recorded protein stability index. I5V
## Result 2.43

## Task Give recorded protein stability index. I5Q
## Result 2.7

## Task Give recorded protein stability index. E15G
## Result 2.04

## Task Give recorded protein stability index. G19N
## Result 2.22

## Task Give recorded protein stability index. H6T
## Result 2.42

## Task Give recorded protein stability index. R10E
## Result 2.7

## Task Give recorded protein stability index. A2E
## Result 3.45

## Task Give recorded protein stability index. Y11C
## Result 1.99

## Task Give recorded protein stability index. R10C
## Result 1.5

## Task Give recorded protein stability index. I5M
## Result 3.15

## Task Give recorded protein stability index. W23M
## Result 3.04

## Task Give recorded protein stability index. I5P
## Result 2.78
